assay: 5-MeO-DMT and bufotenine levels in whole brain by LC-ESI-SRM-MS/MS
Format: in vivo, rat
condition: rat, whole brain, sc, 1 mg/kg, Cmax of 5-MeO-DMT in whole brain, 1 mg/kg SC, clorgyline 0.3 mg/kg pretreatment
endpoint_label: Cmax (ng/g)

COc1ccc2[nH]cc(CCN(C)C)c2c1	634

====

assay: 5-MeO-DMT and bufotenine levels in plasma by LC-ESI-SRM-MS/MS
Assay type: in vivo, rat
condition: rat, plasma, sc, 1 mg/kg, plasma AUC20→70 min for 5-MeO-DMT, 1 mg/kg SC, vehicle pretreatment; trapezoidal rule
endpoint_label: AUC

COc1ccc2[nH]cc(CCN(C)C)c2c1	12.2 ng·h/mL

====

assay: 5-MeO-DMT and bufotenine levels in plasma by LC-ESI-SRM-MS/MS
Type: in vivo, rat
condition: rat, plasma, sc, 1 mg/kg, plasma AUC20→70 min for 5-MeO-DMT, 1 mg/kg SC, clorgyline 0.3 mg/kg pretreatment; trapezoidal rule
endpoint_label: AUC (ng·h/mL)

COc1ccc2[nH]cc(CCN(C)C)c2c1 [5-MeO-DMT, 5-Methoxy-N,N-dimethyltryptamine]	31.4

====

assay: 5-MeO-DMT and bufotenine levels in whole brain by LC-ESI-SRM-MS/MS
Format: in vivo, rat
condition: rat, whole brain, sc, 1 mg/kg, Cmax of 5-MeO-DMT in whole brain, 1 mg/kg SC, vehicle pretreatment
endpoint_label: Cmax

COc1ccc2[nH]cc(CCN(C)C)c2c1	30.3 ng/g

====

assay: 5-MeO-DMT and bufotenine levels in plasma by LC-ESI-SRM-MS/MS
Assay type: in vivo, rat
condition: rat, plasma, sc, 1 mg/kg, plasma Cmax of 5-MeO-DMT, 1 mg/kg SC, vehicle pretreatment
endpoint_label: Cmax

COc1ccc2[nH]cc(CCN(C)C)c2c1 [5-MeO-DMT, 5-Methoxy-N,N-dimethyltryptamine]	52.7 ng/mL

The measured values listed here are drawn from paper PMC5403252.
